- PROTOCOL: Pharmacokinetic analysis after single oral administration to male cynomolgus monkeys, with plasma levels of parent and glucuronidation metabolites
- CONDITION NOTES: cynomolgus monkey, in vivo, 25 mg/kg, AUC0-last
PROPERTY MEASURED: AUC(0-t) (µg·h/mL)

[
  {
    "CPD SMILES": "[2H]C([2H])([2H])Oc1cc(C(=O)NC)ccc1NCC#Cc1cc2c(N[C@@H]3CCN(C)C[C@@H]3F)cccc2n1CC(F)(F)F",
    "RESULT VALUE": 118
  }
]

----------
- PROTOCOL: Pharmacokinetic analysis after single oral administration to male cynomolgus monkeys, with plasma levels of parent and glucuronidation metabolites
- CONDITION NOTES: cynomolgus monkey, in vivo, 25 mg/kg, AUC0-24
- Method: The pharmacokinetics (PK) of a deuterated compound and a comparator compound were measured following a 2-phase single oral (PO) administration to male cynomolgus monkeys. Compound and metabolite levels were monitored for up to 48 hours following dosing. […] Plasma samples were collected at 0.25, 0.5, 1, 2, 4, 8, 12, 24 and 48 hours post-dose in Phases 1 and 2. […] The actual time for each sample collection was recorded. […]

[
  {
    "CPD SMILES": "[2H]C([2H])([2H])Oc1cc(C(=O)NC)ccc1NCC#Cc1cc2c(N[C@@H]3CCN(C)C[C@@H]3F)cccc2n1CC(F)(F)F",
    "UNIT SYMBOL": "µg·h/mL",
    "AUC(0-t)": 107
  }
]

Data origin: patent US11963953B2
